Tested on: S. aureus 133
methodNotes: MIC determination, broth microdilution (CLSI)
Assay type: cell-based
runParameters: Staphylococcus aureus, 133, strain 11; read-out: strain 11 MIC
Would you kindly list MIC for each of these compounds?
Could you give me the number in µg/mL? Just the number is fine.

Suppose we examine the compound C[C@H]1[C@H](NC(=O)/C(=N\OCCOc2cnc(C(=N)N)cn2)c2csc(N)n2)C(=O)N1S(=O)(=O)O [Example 30] ; what MIC value has been reported? 0.125

Suppose we examine the compound C[C@H]1[C@H](NC(=O)/C(=N\OCCOc2ccc(C(=N)N)cn2)c2csc(N)n2)C(=O)N1S(=O)(=O)O [Example 5] ; what MIC value has been reported? 0.125

Suppose we examine the compound C[C@H]1[C@H](NC(=O)/C(=N\OCCOc2ccc(C(=N)NO)cc2)c2csc(N)n2)C(=O)N1S(=O)(=O)O [Example 21] ; what MIC value has been reported? 0.5
